Test system: Pseudomonas aeruginosa
test-description: Antimicrobial activity against Pseudomonas aeruginosa harboring deltapvdF-deltapchA mutant assessed as inhibition of bacterial growth by measuring minimal inhibitory concentration incubated for 48 hrs in presence of iron-depleted CAA medium
Type: functional
Where a SMILES comes first, the peptide text is derived from it. The star is where a group is joined. X1 = O=C(COCC(=O)*)NCCOCCOCCOCCOCCOCCOCCOCCOCCn1cc(CCCC(=O)Nc2c(CNC(=O)c3cccc(O)c3O)cc(CNC(=O)c3cccc(O)c3O)cc2CNC(=O)c2cccc(O)c2O)nn1
readout-type: MIC

Solved entries (count: 2):
{"columns": ["compound", "system-tested", "value-reported"],
 "data": [
  ["CSCC[C@H](NC(=O)[C@H](CCC(N)=O)NC(=O)[C@@H](NC(=O)[C@H](CC(C)C)NC(=O)[C@H](CC(=O)O)NC(=O)[C@H](CC(=O)O)NC(=O)COCC(=O)NCCOCCOCCOCCOCCOCCOCCOCCOCCn1cc(CCCC(=O)Nc2c(CNC(=O)c3cccc(O)c3O)cc(CNC(=O)c3cccc(O)c3O)cc2CNC(=O)c2cccc(O)c2O)nn1)C(C)C)C(=O)N[C@@H](CO)C(=O)N1CCC[C@H]1C(=O)N[C@@H](CO)C(=O)N[C@H](C(=O)N[C@@H](CCCCN)C(N)=O)C(C)C (X1-DDLVQMSPSVK-NH2)", "Pseudomonas aeruginosa", "> 64 µM"],
  ["C#CCNC(=O)CN1CCN(CC(=O)NCCNC(=O)c2cccc(O)c2O)CCN(CC(=O)NCCNC(=O)c2cccc(O)c2O)CCN(CC(=O)NCCNC(=O)c2cccc(O)c2O)CC1", "Pseudomonas aeruginosa", "64 µM"]
]}

Now take the following compound into account.
What the record says about CC[C@@H](C)[C@@H](NC(=O)[C@@H](CCSC)NC(=O)[C@H](NC(=O)[C@@H](C)NC(=O)CNC(=O)[C@@H](CC(C)C)NC(=O)[C@@H](CC(=O)O)NC(=O)[C@H](NC(=O)[C@@H](CO)NC(=O)[C@@H](CO)NC(=O)[C@@H](CC(=O)O)NC(=O)c1cccc(O)c1O)C(C)C)[C@H](C)O)C(=O)N[C@@H](C(=O)N[C@H](CO)C(=O)N[C@H](CC(N)=O)C(=O)N[C@H](CCC(N)=O)C(=O)N[C@H](CC(C)C)C(=O)NCC(=O)N[C@@H](C(=O)N[C@@H](C(=O)N[C@H](CCCCN)C(N)=O)[C@H](C)CC)[C@H](C)O)[C@@H](C)O : MIC is > 64 µM
